Each recorded value in this set is attributed to ChEMBL document CHEMBL5303304.

Documented Growth Rate across a set of compounds
# Tested on: Fibroblast
# assay_name: Incucyte cell viability with human fibroblast; further: unitless GR value; below 1 slowed growth and below 0 cell loss
# Type: toxicity, cell-based
# cond: 0 h, 10 µM, compound concentration 10 uM, replicate number 2

# compound, Growth Rate
measured = [
    ("CCCCc1c(-c2ccccc2)nc(N)nc1-c1ccc(OCc2ccccc2)c(F)c1F", 0.8),
    ("Cc1nn(-c2nc3ccc(Cl)c(Cl)c3[nH]2)c(O)c1C1OC(=O)c2ccccc21 (centres undefined)", -0.86),
    ("COc1ccccc1-c1cc(Nc2cccc(CS(N)(=O)=O)c2)ncn1", -0.71),
    ("Cc1cc(SCc2sc(-c3ccc(C(F)(F)F)cc3)nc2C)ccc1OCC(=O)O [GW501516]", 0.89),
    ("CN1CCN(C(=O)Cc2ccc(N/C(=C3\\C(=O)Nc4cc(Cl)ccc43)c3ccccc3)cc2)CC1", 0.06),
    ("CN(C)C/C=C/C(=O)Nc1cc2c(Nc3ccc(F)c(Cl)c3)ncnc2cc1OC[C@@H]1CCCO1", 0.77),
    ("CC(=O)c1c(C)c2cnc(Nc3ccc(N4CCN(CCOCCOCCOCCNC(=O)COc5cccc6c5C(=O)N(C5CCC(=O)NC5=O)C6=O)CC4)cn3)nc2n(C2CCCC2)c1=O (centres undefined)", 0.18),
    ("Cc1ccccc1Oc1cc(-n2c(=O)cc(C(F)(F)F)[nH]c2=O)c2ccccc2c1Cl [BAY-069]", 0.05),
    ("Cc1ccc(NC(=O)c2ccc3cnccc3c2)cc1C(=O)Nc1cnc(Nc2cccc(NC3CCN(C(=O)/C=C/CN(C)C)CC3)c2)nc1", -0.14),
]

---

# Test system: U2OS
# assay_name: Incucyte cell viability with U2OS; further: unitless GR value; below 1 slowed growth and below 0 cell loss
# Assay type: toxicity, cell-based
# cond: human, 18 h, 10 µM, compound concentration 10 uM, replicate number 1
// N strictly below 0.9 in Growth Rate; Y otherwise

# compound, classification
records = [
    ("Cl.O=c1cc(C2CCNCC2)n2nc3cccc(Cl)c3c2[nH]1", "Y"),
    ("CN1Cc2nccc(-c3cn(C)nc3-c3ccc(F)cc3)c2C1=O.Cl", "Y"),
    ("O=C(Nc1cccc(C(F)(F)F)c1)c1cc(Cl)ccc1O", "N"),
    ("CN(c1ccc(C(F)(F)F)cc1)S(=O)(=O)c1ccc(C(=O)Nc2nc(-c3ccccn3)cs2)cc1", "Y"),
    ("CN(C)c1cc2c(Nc3ccc4c(cnn4Cc4ccccc4)c3)ncnc2cn1 [GW282974X]", "N"),
    ("CN1CCN(c2nc(N)c3ccccc3n2)CC1", "N"),
    ("O=C(Cc1ccccc1)Nc1nnc(N2C[C@H]3C[C@@H]2CN3c2cccnn2)s1 [A-446]", "N"),
    ("N[C@H](C(=O)O)[C@@H]1CC(Cl)=NO1 [ACIVICIN]", "Y"),
    ("CCNCCNC(=O)c1c(C)[nH]c(/C=C2\\C(=O)Nc3ccc(F)cc32)c1C", "N"),
    ("O=C(O)C(F)(F)F.O=C1NC(=O)/C(=C/c2c[nH]c(=O)c(-c3ccc(N4CCNCC4)nc3)c2)S1", "Y"),
    ("CN1CCc2cc(Nc3ncc(C(F)(F)F)c(NCc4cc[nH]n4)n3)ccc2C1", "N"),
    ("Nc1ncnc2c1ccn2[C@@H]1O[C@H]([C@@H](O)c2ccccc2)[C@@H](O)[C@H]1O", "N"),
    ("CNC1(C)C2CCC(C2)C1(C)C.Cl (centres undefined) [MECAMYLAMINE HYDROCHLORIDE]", "Y"),
]

---

# Tested on: Fibroblast
# assay_name: Incucyte cell viability with human fibroblast; further: unitless GR value; below 1 slowed growth and below 0 cell loss
# Format: toxicity, cell-based
# cond: 24 h, 10 µM, compound concentration 10 uM, replicate number 2
Sorting guide: entries reporting Growth Rate beneath 0.6 go in the criterion met pile, the rest go in the criterion not met pile.

# molecule, classification
data = [
    ("COC(=O)c1cc2c(cn1)[nH]c1ccccc12", "criterion not met"),
    ("CC(Oc1cc(-c2cnn(C3CCNCC3)c2)cnc1N)c1c(Cl)ccc(F)c1Cl (stereo unspecified)", "criterion met"),
    ("CN1C2CCCC1CC(Nc1ccccc1Br)C2 (stereo unspecified)", "criterion not met"),
    ("Cc1ccc(-c2cn3nc(C(=O)NC4(c5ccc(F)cc5)CN(C)C4)c(C(C)C)c3c(=O)[nH]2)cc1C", "criterion met"),
    ("O=C(CCCCCCc1ccccc1)c1ncc(-c2ccccn2)o1", "criterion not met"),
    ("O=C(NCCS(=O)(=O)c1ccc(C(F)(F)F)cn1)c1ccc(Cl)cc1", "criterion not met"),
    ("CC(=O)Nc1nc(CN2CCC[C@H](Cc3cc(C)nc(C)c3)C2)cs1", "criterion not met"),
    ("Oc1cccc(Nc2ccnc3[nH]c4ccccc4c23)c1", "criterion met"),
    ("N#Cc1ccnc(Nc2cc(C3CCN(C4COC4)CC3)cc(N3CCC(F)(F)C3)n2)c1", "criterion met"),
    ("N#C/C(=C\\c1ccc(O)c(O)c1)C(=O)OCCc1cccs1", "criterion met"),
    ("COc1ccccc1N1CCN(c2ncnc3c2cnn3-c2ccccc2)CC1", "criterion not met"),
    ("Cc1cc2ncnn2cc1Nc1ncc2c(n1)n(C1CCOCC1)c(=O)n2C", "criterion not met"),
    ("CCOC(=O)c1cc2cc(-c3cc(C(=O)NCc4ccc(C(=O)O)cc4)nn3C)ccc2[nH]1", "criterion not met"),
    ("CCC(C)(C)CC[C@H](NC(=O)N1CCOCC1)C(=O)NC1(C#N)CCN(C)CC1", "criterion not met"),
    ("COc1cc(Cl)c(C(=O)N[C@@H](CN[C@H]2CC[C@@H](N)CC2)Cc2ccc(C#N)cc2)cc1-c1ccc(CN[C@H](C)c2ccc(C)cc2)o1", "criterion met"),
    ("CNS(=O)(=O)c1ccc(N(C)C)c(Nc2ncnc3cc(OC)c(OC)cc23)c1", "criterion met"),
    ("O=C(Nc1ccc(OC(F)(F)Cl)cc1)c1cnc(N2CC[C@@H](O)C2)c(-c2ccn[nH]2)c1", "criterion not met"),
    ("O=C(Nc1cccc(C(F)(F)F)c1)c1cc(Cl)ccc1O", "criterion met"),
    ("COc1ccc(OC(=O)N(CC(=O)O)Cc2ccc(OCCc3nc(-c4ccccc4)oc3C)cc2)cc1", "criterion not met"),
    ("COc1ccc(CCN(C)CCCC(C#N)(c2cc(OC)c(OC)c(OC)c2)C(C)C)cc1OC.Cl (stereo unspecified) [GALLOPAMIL HYDROCHLORIDE]", "criterion not met"),
    ("C[C@@H]1Cc2c([nH]c3ccccc23)[C@@H](c2c(F)cc(/C=C/C(=O)O)cc2F)N1CC(C)(C)F", "criterion not met"),
    ("CCOC(=O)N1CCC(CN(Cc2ccc(Cl)cc2)Cc2ccc([N+](=O)[O-])s2)C1 (stereo unspecified)", "criterion met"),
    ("CCOC(=O)c1c(/C(C#N)=C\\N)c2ccc(Cl)c(Cl)c2n1C", "criterion not met"),
    ("CCN1CCN(Cc2ccc(NC(=O)Nc3ccc(Oc4cc(NC)ncn4)cc3)cc2C(F)(F)F)CC1", "criterion met"),
    ("O=C(Nc1cc(C(F)(F)F)ccc1N1CCCCC1)c1ccncc1", "criterion not met"),
    ("Cn1c(Nc2c(Cl)cccc2Cl)nc2ccc3nc[nH]c(=O)c3c21", "criterion met"),
    ("Cc1c(C(=O)NCCCN(C)C)sc2ncnc(Nc3ccc(F)cc3OC(C)CF)c12 (stereo unspecified)", "criterion met"),
    ("COCCc1ccc(-c2c(C)nc3c(N4CCOCC4)ccnn23)cn1", "criterion not met"),
    ("O=C(Nc1ccc(-n2nc(-c3cccnc3)cc2C(F)(F)F)cn1)c1ccc(-c2ccccc2)c(F)c1", "criterion not met"),
    ("Clc1cccc(Nc2nccc(NCCCN3CCOCC3)n2)c1", "criterion met"),
    ("CC(=O)O[C@H]1C(=O)[C@@]2(C)[C@H]([C@H](OC(=O)c3ccccc3)[C@]3(O)C[C@H](OC(=O)[C@H](O)[C@@H](NC(=O)c4ccccc4)c4ccccc4)C(C)=C1C3(C)C)[C@]1(OC(C)=O)CO[C@@H]1C[C@@H]2O", "criterion met"),
]

---

# System: HEK-293T
# assay_name: Incucyte cell viability with HEK293T; further: unitless GR value; below 1 slowed growth and below 0 cell loss
# Type: toxicity, cell-based
# cond: human, 0 h, 10 µM, compound concentration 10 uM, replicate number 2
// values below are reported Growth Rate

# compound, Growth Rate
data = [
    ("C=CC[C@@H]1/C=C(\\C)C[C@H](C)C[C@H](OC)[C@H]2O[C@@](O)(C(=O)C(=O)N3CCCC[C@H]3C(=O)O[C@H](/C(C)=C/[C@@H]3CC[C@@H](O)[C@H](OC)C3)[C@H](C)[C@@H](O)CC1=O)[C@H](C)C[C@@H]2OC.O [TACROLIMUS]", -0.12),
    ("CC(C)c1ccc(CC(=O)N[C@H](C)c2ccc(OCC(F)(F)F)cn2)cc1 [SUVECALTAMIDE]", 0.85),
    ("CC(C)(C)OC(=O)CN(Cc1ccc(Cl)cc1)Cc1ccc([N+](=O)[O-])s1 [GSK-4112]", 0.51),
    ("COc1cc(N2CCN(C)CC2)ccc1Nc1nccc(-c2cn(C)c3cnccc23)n1", -0.69),
    ("Clc1cccc(Nc2nccc(NCCCN3CCOCC3)n2)c1", 0.13),
    ("Cc1ccccc1C1C(=O)N(C)c2cnc(Nc3ccc(S(N)(=O)=O)cc3)nc2N1C (stereo not given)", -0.88),
    ("COc1cc2nc([C@@H]3CCCS(=O)(=O)C3)n(C)c2cc1NC(=O)c1cccc(C(C)(F)F)n1", -0.88),
    ("CN(C)[C@H]1CCN(c2cc(C(F)(F)F)c(C#N)c(Nc3cccc(CCC(=O)O)c3)n2)C1.O=C(O)C(F)(F)F", 0.79),
    ("CNc1nc(-c2ccc3c(N)n[nH]c3c2)cc(N2C[C@@H](C(=O)NC3CCCCC3)CC[C@H]2C)n1", -0.02),
    ("COc1cc(C(=O)NCCOCCOCCOCCC(=O)Nc2cccc3c2C(=O)N(C2CCC(=O)NC2=O)C3=O)ccc1Nc1ncc(C(F)(F)F)c(Oc2cccc3c2C(=O)CC3)n1 (stereo not given)", -0.99),
]
